target: monomeric alpha-synuclein (UniProt P37840 1-140); assay: SPR, captured mAb
Here, each record is paired with measured Kd data.
The figure you give is taken to be in nM; do not add the unit.

Binder: ACI-7089-4415G5-Ab1 (antibody, V domains shown, mouse hybridoma mAb; VH/VL only; also called 4415G5A11) VH: QVQLQQSGAELARPGASVKVSCKASGYTFTSSGISWLKHRTGQGLEWIGDIYPRSGNTYYNEKFKDKATLTADKSSSTAYMELRSLTSEDSAVYFCASGNYWGQGTTLTVSA VL: DIVITQDDLSNPVTSGESVSISCRSSKSLLYKDGKTYLNWFLQRPGQSPQLLIYLMSTRASGVSDRFSGSGSGTDFTLEISRVKAEDVGVYYCQQLLEYPLTFGAGTKLELK
Kd [nM]: 2.4
//
Binder: ACI-7079-2601B6-Ab1 (antibody, V domains shown, mouse hybridoma mAb; VH/VL only; also called 2601B6D2; ACI-7079-26016NAbM) VH: EIQLQQSGAELVRPGASVKLSCTTSGFNIKDDYIHWVKQRPEQGLEWIGWIDPENGDTDYASKFQGKATITADTSSNTAYLHLSSLTSEDAAVYFCTTRGFGYWGQGTLVTVS VL: DIVMTQSHKFMSTSVGDRVSITCKASQDVGNVVAWYQQKPGQSPKLLIYWASSRHTGVPDRFTGSGSGTEFTLTISNVQSEDLADYFCQQYSSYPLTFGAGTKLELK
Kd [nM]: 82.1
//
Binder: ACI-8032-6314A3-Ab3 (antibody, V domains shown, mouse hybridoma mAb; VH/VL only; also called 6314A3E4) VH: QVQLQQSGAELARPGASVKLSCKASGYTFTSYGVSWVKQRTGQGLEWIGEIYPRSGNTYYNEKFKGKATLTADKSSSTAYMELRSLTSEDSAVYFCASESYYGDYDWYFDVWGTGTTVTVSS VL: DVLMTQIPLSLPVSPGDQVFISCRSSQSIVHSNGNTYLEWYLQKPGQSPKPLIYKVSNRFSGVPDRFSGSGSGTDFTLKISRVEAEDLGVYYCFQGSHVPPTFGGGTKLEIK
Kd [nM]: 16.7
//
Binder: ACI-7079-3106F2-Ab1 (antibody, V domains shown, mouse hybridoma mAb; VH/VL only; also called 3106F2C8) VH: EVQLQQSGAELVRPGASVKLSCTASGFNVKDDYMHWVKQRPEQGLEWIGWIDPENGDTEYASKFQGKATLTADTSSNTAYLQLSGLTSVDTAVYYCTTAGTSPYYFDYWGQGTTLTVSS VL: DIVMTQSQKFMSTSVGDRVSVTCKASQNVGTNVAWYQQKVGQSPKALIYSASYRYSGVPDRFTGSGSGTDFTLTISNVQSEDLADYFCQQYNSYPLTFGSGTKLEIK
Kd [nM]: 392

From here, focus on the item given below.
Query string: Return reported Kd; argument: ACI-8031-6207G10-Ab1 (antibody, V domains shown, mouse hybridoma mAb; VH/VL only; also called 6207G10E6) VH: QVQLQQSGAELVKPGASVKISCKASGYAFSSYWMNWVKQRPGKGLEWIGQIYPGDGDTNYNGKFKGKATLTADRSSSTAYMQLSSLTSEDSAVYFCAITHYDYWGQGTTLTVSS VL: DILLTQSPAILSVSPGDRVSFSCRASQSIGTRIHWYQQRTNGSPRLLIKYASESISGTPSRFSGSGSGTDFTLSINSVESEDIADYYCQQSNSWPLTFGAGTKLELK
Result string: 3.67
